target: T1, ECF11_3726
T1 chain: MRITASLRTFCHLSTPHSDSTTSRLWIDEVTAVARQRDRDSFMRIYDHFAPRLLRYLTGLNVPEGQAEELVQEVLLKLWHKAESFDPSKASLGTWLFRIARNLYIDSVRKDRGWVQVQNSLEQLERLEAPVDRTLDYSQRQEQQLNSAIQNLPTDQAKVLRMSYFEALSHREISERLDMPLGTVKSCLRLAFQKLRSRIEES
Consider the following binders; for each one, report its fold repression.
Numbers only.

[
  {
    "binder": "AS14_1324 (protein) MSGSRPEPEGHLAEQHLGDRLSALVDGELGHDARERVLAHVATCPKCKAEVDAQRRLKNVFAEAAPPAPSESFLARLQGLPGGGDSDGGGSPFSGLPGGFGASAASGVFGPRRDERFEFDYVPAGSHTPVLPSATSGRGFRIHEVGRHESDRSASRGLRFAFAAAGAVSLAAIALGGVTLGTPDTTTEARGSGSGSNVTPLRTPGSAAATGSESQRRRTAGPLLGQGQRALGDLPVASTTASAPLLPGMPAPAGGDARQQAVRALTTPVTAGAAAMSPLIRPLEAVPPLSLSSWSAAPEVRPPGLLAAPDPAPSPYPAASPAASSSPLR",
    "fold repression": 11
  },
  {
    "binder": "AS22_4450 (protein) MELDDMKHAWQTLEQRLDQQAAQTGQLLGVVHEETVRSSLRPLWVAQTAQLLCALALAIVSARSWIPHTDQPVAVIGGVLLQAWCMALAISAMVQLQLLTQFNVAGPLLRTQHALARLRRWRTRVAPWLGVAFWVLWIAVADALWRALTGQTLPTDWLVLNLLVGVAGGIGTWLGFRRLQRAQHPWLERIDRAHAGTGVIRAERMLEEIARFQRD",
    "fold repression": 1.93
  },
  {
    "binder": "AS30_35 (protein) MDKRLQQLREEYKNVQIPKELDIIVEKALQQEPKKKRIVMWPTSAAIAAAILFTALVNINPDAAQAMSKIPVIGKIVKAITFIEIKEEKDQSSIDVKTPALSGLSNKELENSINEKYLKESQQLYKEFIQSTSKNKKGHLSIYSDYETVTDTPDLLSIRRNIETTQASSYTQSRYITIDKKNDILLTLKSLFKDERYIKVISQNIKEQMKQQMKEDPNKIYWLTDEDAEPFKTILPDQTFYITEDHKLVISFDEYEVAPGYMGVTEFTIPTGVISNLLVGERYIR",
    "fold repression": 2.09
  }
]

--- query ---
# binder AS01_3473 (protein) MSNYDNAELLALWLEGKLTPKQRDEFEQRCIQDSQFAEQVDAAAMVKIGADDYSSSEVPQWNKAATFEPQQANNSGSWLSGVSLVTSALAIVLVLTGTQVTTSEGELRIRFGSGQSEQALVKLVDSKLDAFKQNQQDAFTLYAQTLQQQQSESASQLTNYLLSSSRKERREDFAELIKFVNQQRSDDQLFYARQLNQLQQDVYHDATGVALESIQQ ; its fold repression = 5.65
